Origin of the recorded values: patent US10150760B2

system: human APJ receptor (Homo sapiens (Human))
Sequence (P35414 whole entry): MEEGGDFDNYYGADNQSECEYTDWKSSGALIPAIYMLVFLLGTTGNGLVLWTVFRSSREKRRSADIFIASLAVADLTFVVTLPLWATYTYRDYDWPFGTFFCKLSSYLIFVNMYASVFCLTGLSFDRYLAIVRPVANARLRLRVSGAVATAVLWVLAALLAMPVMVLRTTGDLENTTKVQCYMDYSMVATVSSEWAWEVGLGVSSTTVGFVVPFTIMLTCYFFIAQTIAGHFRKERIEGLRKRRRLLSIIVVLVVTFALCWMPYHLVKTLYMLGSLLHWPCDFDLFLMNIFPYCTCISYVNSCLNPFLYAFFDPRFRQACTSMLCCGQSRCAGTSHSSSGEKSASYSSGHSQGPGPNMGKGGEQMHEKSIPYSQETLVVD
experimentSummary: [35S]GTPγS binding assay on membranes from CHO cells stably expressing human APJ receptor
conditionsUsed: read-out: Activity hAPJ SPA EC50 IP
pEC50: −log10 of the molar value.
# label = T if pEC50 >= 7 else F

{"compound": "COc1ncnc(OC)c1-n1c(NS(=O)(=O)[C@@H](C)[C@H](OC)c2ncc(Cl)cn2)nnc1C1CCCOC1 (single isomer, unassigned) [Example 91.0]", "cat": "F"}
{"compound": "COc1cccc(OC)c1-n1c(NS(=O)(=O)[C@@H](C)[C@H](OC)c2ncc(Cl)cn2)nnc1[C@H]1CC[C@@H](C)O1 (single isomer, unassigned) [Example 77.0]", "cat": "T"}
{"compound": "COc1ncnc(OC)c1-n1c(NS(=O)(=O)[C@@H](C)[C@@H](OC(C)C)c2ncc(Cl)cn2)nnc1[C@H]1CCC(C)(C)O1 (single isomer, unassigned) [Example 279.0]", "cat": "T"}
{"compound": "COc1cccc(OC)c1-n1c(NS(=O)(=O)[C@@H](C)[C@H](OC)c2ncc(Cl)cn2)nnc1[C@H]1CCCO1 (single isomer, unassigned) [Example 51.0]", "cat": "T"}
